Read-out: Interleukin-1 alpha (IL1a), IL1A (gene 3552)
run.description: BSK_BE3C_IL1a: BioMAP Diversity Plus: BE3C Assay for Interleukin-1 alpha (IL1a) Biomarker Activity (AID 2283016)
run.parameters: primary human bronchial epithelial cells; actives raise or lower the signal
Calls of active or inactive are those of the source. The calls were made as follows: active = hit-call score of the fitted dose curve at least 0.9, where 1 is the maximum; inactive = score below 0.9.
Pick one and only one: active, inactive

These recorded examples may help you get a feel for the data.
compound: CCCCCCC(C)OC(=O)CCCCC(=O)OC(C)CCCCCC (stereo not given)
discrete.label: inactive
//
compound: N=C(N)C(F)(F)C(F)(F)C(F)(F)C(F)(F)C(F)(F)C(F)(F)C(F)(F)F
discrete.label: inactive
//
compound: CCCCC(CC)COP(=O)(O)OCC(CC)CCCC (stereo not given)
discrete.label: inactive
//
compound: CCCCCCCOC(=O)c1ccccc1C(=O)OCCCCCCC
discrete.label: inactive
//
compound: Oc1ccc(Nc2ccccc2)cc1
discrete.label: active
//
compound: OCCCC(F)(F)C(F)(F)C(F)(F)F
discrete.label: inactive
//
compound: C=CC(=O)OCC(F)(F)C(F)(F)C(F)(F)C(F)(F)C(F)(F)C(F)(F)C(F)(F)F
discrete.label: inactive
//
compound: COC(=O)CCC(F)(F)C(F)(F)C(F)(F)C(F)(F)F
discrete.label: inactive
//
compound: OCC(F)(F)C(F)(F)C(F)(F)F
discrete.label: inactive
//
compound: O=S(=O)(O)C(F)(F)C(F)(F)C(F)(F)C(F)(F)C(F)(F)C(F)(F)C(F)(F)F
discrete.label: inactive

// param item: FC(F)(F)C(F)(F)CNCC(F)(F)C(F)(F)F ; yields the recorded call inactive

Returns: the outcome recorded for O[Si](c1ccccc1)(c1ccccc1)c1ccccc1 in this assay. inactive

Just curious, what result did O=C(CC(=O)C(F)(F)C(F)(F)F)C(F)(F)F get here? inactive

Which outcome was entered for the compound FC(F)(F)C(F)(F)C(F)(F)N(C(F)(F)C(F)(F)C(F)(F)F)C(F)(F)C(F)(F)C(F)(F)F in this test? inactive

Which outcome was assigned to C=CC/C=C/C/C=C/C/C=C/C in this test? inactive

// return assay outcome for CCCCCCCCCCCCCCCC[N+](C)(C)Cc1ccccc1 active

What did this assay record as the result for CO[Si](OC)(c1ccccc1)c1ccccc1 ? inactive

====

Read-out: Vascular cell adhesion molecule 1 (VCAM1), VCAM1 (gene 7412)
run.description: BSK_MyoF_VCAM1: BioMAP Diversity Plus: MyoF Assay for Vascular cell adhesion molecule 1 (VCAM1) Biomarker Activity (AID 2284231)
run.parameters: primary human lung fibroblasts
Protocol: BSK_MyoF is a cell-based, multiplexed-readout assay that uses lung fibroblasts, […], with measurements taken at 24 hours after chemical dosing in a microplate: 96-well plate.BSK_MyoF_VCAM1 is an assay component measured in the BSK_MyoF assay. […] The levels of cell surface (or secreted, indicated by the prefix "s") biomarker endpoints were measured by ELISA. […] Plates were read after 6 h.
Calls of active or inactive are those of the source. How the source made its calls: active means hit-call score of the fitted dose curve at least 0.9, where 1 is the maximum; inactive means score below 0.9.
Field 'call' accepts active, inactive

Solved entries:
compound: C=CC(F)(F)C(F)(F)C(F)(F)C(F)(F)C(F)(F)C(F)(F)C(F)(F)C(F)(F)F
discrete.label: inactive
//
compound: FC(F)(F)C(F)(F)C(F)(F)C(F)(F)C(F)(F)C(F)(F)CCS
discrete.label: inactive
//
compound: CCCCCCC(C)OC(=O)CCCCC(=O)OC(C)CCCCCC (stereo unspecified)
discrete.label: inactive
//
compound: CO[Si](OC)(c1ccccc1)c1ccccc1
discrete.label: active
//
compound: O=C(O)C(F)(F)C(F)(F)F
discrete.label: inactive

Tell me the recorded outcome of this test for NC(=O)C(F)(F)C(F)(F)C(F)(F)C(F)(F)F . inactive

Tell me the recorded outcome of this test for CCCCCCCCCCCCCCCC[N+](C)(C)Cc1ccccc1 . active

I'd appreciate the recorded outcome for FC(F)(F)C(F)(F)CNCC(F)(F)C(F)(F)F from this test. inactive

How did this test come out for C=CC/C=C/C/C=C/C/C=C/C ? inactive

How was C=C(C)C(=O)OCCC(F)(F)C(F)(F)C(F)(F)C(F)(F)C(F)(C(F)(F)F)C(F)(F)F classified in this test? inactive

What is the recorded call for this compound in the test? OCC(F)(F)C(F)(F)C(F)(F)C(F)(F)C(F)(F)C(F)(F)F inactive

====

target.or.test.system: Estrogen receptor (Homo sapiens) + Estrogen receptor beta (Homo sapiens) (UniProt P03372+Q92731)
Sequence (P03372 whole entry, looked up, the tested form may be a part): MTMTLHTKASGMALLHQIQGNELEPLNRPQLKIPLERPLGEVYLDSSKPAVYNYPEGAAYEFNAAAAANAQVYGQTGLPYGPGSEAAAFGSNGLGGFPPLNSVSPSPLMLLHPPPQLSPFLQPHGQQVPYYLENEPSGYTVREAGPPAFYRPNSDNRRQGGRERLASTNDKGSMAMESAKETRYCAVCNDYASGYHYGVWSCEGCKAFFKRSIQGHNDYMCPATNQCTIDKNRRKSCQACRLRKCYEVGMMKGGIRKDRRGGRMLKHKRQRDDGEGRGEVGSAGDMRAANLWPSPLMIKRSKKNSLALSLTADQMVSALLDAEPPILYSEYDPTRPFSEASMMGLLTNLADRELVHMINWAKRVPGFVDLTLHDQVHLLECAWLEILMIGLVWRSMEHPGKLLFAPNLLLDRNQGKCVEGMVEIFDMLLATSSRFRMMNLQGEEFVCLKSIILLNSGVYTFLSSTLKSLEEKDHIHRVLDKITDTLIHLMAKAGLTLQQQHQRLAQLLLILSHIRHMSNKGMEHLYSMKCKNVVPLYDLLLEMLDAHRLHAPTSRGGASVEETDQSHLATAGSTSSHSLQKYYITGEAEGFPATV
Sequence (Q92731 whole entry, looked up, the tested form may be a part): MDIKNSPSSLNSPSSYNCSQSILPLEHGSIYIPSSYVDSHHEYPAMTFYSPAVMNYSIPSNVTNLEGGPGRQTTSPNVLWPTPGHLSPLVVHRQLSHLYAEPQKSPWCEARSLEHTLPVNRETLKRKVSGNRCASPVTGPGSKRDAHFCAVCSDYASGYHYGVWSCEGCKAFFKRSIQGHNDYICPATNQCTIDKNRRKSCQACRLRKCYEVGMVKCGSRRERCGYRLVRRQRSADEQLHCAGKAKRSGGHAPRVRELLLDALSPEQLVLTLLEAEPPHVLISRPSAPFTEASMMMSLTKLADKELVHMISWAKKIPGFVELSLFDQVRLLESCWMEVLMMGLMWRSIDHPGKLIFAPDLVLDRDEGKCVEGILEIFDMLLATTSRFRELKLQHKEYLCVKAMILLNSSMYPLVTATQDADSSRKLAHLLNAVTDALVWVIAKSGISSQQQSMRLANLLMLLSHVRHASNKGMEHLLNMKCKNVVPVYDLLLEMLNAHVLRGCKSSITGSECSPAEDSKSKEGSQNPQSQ
run.description: OT_ER_ERaERb_1440: Odyssey Thera (OT) 24-hour HEK293T Protein-Complementation Assay for Estrogen Receptor-alpha/-beta Homodimer (AID 2283356);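 also: heteromer of ER alpha and ER beta binding domains; hits raise reporter fluorescence and both agonists and antagonists give an increase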
Results filed as inconclusive are left out. Active and inactive are the calls of the source. Rule for the calls: active = hit-call score of the fitted dose curve at least 0.9, where 1 is the maximum; inconclusive = response in the unintended direction; inactive = score below 0.9.
Thanks in advance; please answer with one of these: TRUE = active, FALSE = inactive

compound: CCCCCCOC(=O)c1ccccc1O
discrete.label: FALSE
//
compound: CCCCOc1ccc(N)cc1
discrete.label: TRUE
//
compound: COC(=O)C1CCC(C(=O)OC)CC1 (stereo unspecified)
discrete.label: FALSE
//
compound: Cc1cc(C)cc(O)c1
discrete.label: FALSE
//
compound: CCN(Cc1cccc(S(=O)(=O)O)c1)c1ccc(C(=C2C=CC(=[N+](CC)Cc3cccc(S(=O)(=O)O)c3)C=C2)c2ccc(O)cc2S(=O)(=O)[O-])cc1
discrete.label: FALSE

Kindly review the next compound as well.
Record request — test call for Cc1ccc(S(=O)(=O)NCl)cc1 FALSE

====

run.description: BSK_BF4T_SRB: Viability Assessment in the BioMAP Diversity Plus: BF4T Assay (AID 2284274)
run.parameters: primary human bronchial epithelial cells with fibroblasts
Active and inactive are the calls of the source. Rule for the calls: active = hit-call score of the fitted dose curve at least 0.9, where 1 is the maximum; inactive = score below 0.9.

compound: O=S(=O)(OCCOC(F)(F)F)C(F)(F)F
outcome: inactive
//
compound: O=C(O)C(F)(OC(F)(F)C(F)(OC(F)(F)C(F)(F)C(F)(F)F)C(F)(F)F)C(F)(F)F (stereo not drawn)
outcome: inactive
//
compound: FC(F)(F)C(F)(F)CNCC(F)(F)C(F)(F)F
outcome: inactive

====

run.description: CCTE_Harrill_HTTr_Viability_MCF7: CCTE's 6-hour Cell Viability Assessment for the High-Throughput Transcriptomics (HTTr) Platform, in MCF-7 cells cultured in DMEM + 10% fetal bovine serum, Harrill Lab (AID 2284010)
Active and inactive are the calls of the source. Rule for the calls: active = hit-call score of the fitted dose curve at least 0.9, where 1 is the maximum; inactive = score below 0.9.
assay.metric: outcome

Recorded results for 4 molecules are shown here.
molecule: CC(Cc1ccc(O)c(O)c1)C(C)Cc1ccc(O)c(O)c1 (stereo not given)
assay.metric: outcome
obs.value: inactive

molecule: CCCCCCCOC(=O)c1ccccc1C(=O)OCCCCCCC
assay.metric: outcome
obs.value: inactive

molecule: Nc1ccc(S(=O)(=O)Nc2nccs2)cc1
assay.metric: outcome
obs.value: inactive

molecule: CC(CCl)OP(=O)(OC(C)CCl)OC(C)CCl (stereo not given)
assay.metric: outcome
obs.value: inactive

In the following, a different molecule is considered.
Lab book: outcome of CCN(Cc1cccc(S(=O)(=O)O)c1)c1ccc(C(=C2C=CC(=[N+](CC)Cc3cccc(S(=O)(=O)O)c3)C=C2)c2ccc(O)cc2S(=O)(=O)[O-])cc1 noted as inactive

====

run.description: ATG_CRE_CIS: Attagene CIS-FACTORIAL HepG2 Assay for human cAMP Responsive Element (CRE) binding protein 3 (AID 2282926)
run.parameters: HepG2 CRE cis-reporter, Attagene multiplexed mRNA; actives raise or lower the signal
Calls of active or inactive are those of the source. The calls were made as follows: active = hit-call score of the fitted dose curve at least 0.9, where 1 is the maximum; inactive = score below 0.9.
// allowed return values: T for active, F for inactive

See these solved cases before continuing.
compound: O=C(O)C(F)(F)C(F)(F)C(F)(F)F
discrete.label: F
--
compound: CCCCCCS
discrete.label: F

Per the assay record, what outcome was assigned to O=C(O)C(F)(F)C(F)(F)C(F)(F)C(F)(F)F ? F

Test call for this compound, please: CO[Si](OC)(c1ccccc1)c1ccccc1 F

Give the logged outcome of this assay for the following compound: O=C(O)C(F)(OC(F)(F)C(F)(OC(F)(F)C(F)(F)C(F)(F)F)C(F)(F)F)C(F)(F)F (stereo not drawn) F

====

run.description: CCTE_Padilla_ZF_Score.Living: CCTE's 144 Hour Post-fertilization zebrafish Assay Score for Viability, Padilla Lab (AID 2284410);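 also: larval death at 6 dpf judged by absent heartbeat or coagulation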
Calls of active or inactive are those of the source. How the source made its calls: active means hit-call score of the fitted dose curve at least 0.9, where 1 is the maximum; inactive means score below 0.9.
Your response should consist of one outcome taken from T (active), F (inactive)

compound: FC(F)(F)C(F)(F)C(F)(F)C(F)(F)C(F)(F)C(F)(F)C(F)(F)C(F)(F)F
discrete.label: F
--
compound: O=C(O)C(F)(F)C(F)(F)C(F)(F)C(F)(F)C(F)(F)C(F)(F)C(F)(F)C(F)(F)C(F)(F)C(F)(F)C(F)(F)C(F)(F)F
discrete.label: F

Per the records of this test, what outcome belongs to O=P(O)(O)OCCC(F)(F)C(F)(F)C(F)(F)C(F)(F)C(F)(F)C(F)(F)F ? F

I'd appreciate the recorded outcome for OCC(F)(F)C(F)(F)C(F)(F)C(F)(F)C(F)(F)C(F)F from this test. F

Look up the recorded call for O=C(O)C(F)(F)C(F)(F)C(F)F in this test. F

# lookup: test call for O=C(O)C(F)(F)C(F)(F)C(F)(F)C(F)(F)C(F)(F)C(F)(F)C(F)(F)C(F)(F)C(F)(F)C(F)(F)C(F)(F)C(F)(F)C(F)(F)F F

Please state the recorded outcome for this compound: C=CC(=O)OCC(F)(F)C(F)(F)C(F)(F)C(F)(F)COC(=O)C=C T

Check the results log: what was the call for O=C(O)C(F)(F)C(F)(F)C(F)(F)F ? F

GET /call?item= FC(F)(F)C(F)(F)C(F)(F)C(F)(F)C(F)(F)C(F)(F)CCS returns the recorded outcome of this test. F

The measured values listed here are drawn from PubChem BioAssay (EPA / NIEHS).
